experiment: Inhibition of NADH-oxidase activity of electron transport protein complex 1 in submitochondrial particles of bovine heart; design: species or system Bos taurus
Hi! Just check whether IC50 is below 0.5 nM. Below gives true (1), equal or above gives false (0).

                                   compound      class
0  CCCCCCCCCC[C@H](O)[C@H]1CC[C@H]([C@H]2CC[C@H]([C@H](O)CCCC/C(CCCCCCCC3=C[C@H](C)OC3=O)=N\O)O2)O1   true (1)
1  CCCCCCCCCC[C@H](O)[C@H]1CC[C@H]([C@H]2CC[C@H]([C@H](O)CCCCC(O)CCCCCCCC3=C[C@H](C)OC3=O)O2)O1 (some centres not stated)  false (0)
2  CCCCCCCCCC[C@H](O)[C@@H]1CC[C@H]([C@H]2CC[C@@H]([C@H](O)CCCCCCCC[C@@H](O)CC3=C[C@H](C)OC3=O)O2)O1   true (1)
3  CCCCCCCCCC[C@H](O)[C@H]1CC[C@H]([C@H]2CC[C@H]([C@H](O)CCCCCCCCCCCCC3=C[C@H](C)OC3=O)O2)O1   true (1)
4  CCCCCCCCCC[C@H](O)[C@H]1CC[C@H]([C@H]2CC[C@H]([C@H](O)CCCCC(=O)CCCCCCCC3=C[C@H](C)OC3=O)O2)O1  false (0)
5  CCCCC[C@H](O)CCCC[C@H](O)[C@H]1CC[C@H]([C@H]2CC[C@H]([C@H](O)CCCCCCCCCCCCC3=C[C@H](C)OC3=O)O2)O1   true (1)

* * *

test: Inhibition of NADH-ubiquinone oxidoreductase activity of electron transport protein complex 1 in submitochondrial particles of bovine heart; set-up: species or system Bos taurus
Value kind: IC50

>>> print(df.to_string())
                                   compound  endpoint_result
0  CCCCCCCCCC[C@H](O)[C@H]1CC[C@H]([C@H]2CC[C@H]([C@H](O)CCCCC(O)CCCCCCCC3=C[C@H](C)OC3=O)O2)O1 (some centres undefined)           1.9 nM
1  CCCCCCCCCC[C@H](O)[C@@H]1CC[C@H]([C@H]2CC[C@@H]([C@H](O)CCCCCCCC[C@@H](O)CC3=C[C@H](C)OC3=O)O2)O1 [ROLLIMEMBRIN]          0.83 nM
2  CCCCC[C@H](O)CCCC[C@H](O)[C@H]1CC[C@H]([C@H]2CC[C@H]([C@H](O)CCCCCCCCCCCCC3=C[C@H](C)OC3=O)O2)O1 [MOTRILIN]          0.81 nM
3  CCCCCCCCCC[C@H](O)[C@H]1CC[C@H]([C@H]2CC[C@H]([C@H](O)CCCCC(=O)CCCCCCCC3=C[C@H](C)OC3=O)O2)O1 [GUANACONE]          2.07 nM

* * *

Recorded pIC50 by entry
assay: Inhibition of NADH-ubiquinone oxidoreductase activity of electron transport protein complex 1 in submitochondrial particles of bovine heart; parameters: species or system Bos taurus
pIC50: −log10 of the molar value.
Value kind: pIC50

Molecule	Value kind	Endpoint result
CCCCCCCCCC[C@H](O)[C@H]1CC[C@H]([C@H]2CC[C@H]([C@H](O)CCCC/C(CCCCCCCC3=C[C@H](C)OC3=O)=N\O)O2)O1	pIC50	9.17
CCCCCCCCCC[C@H](O)[C@H]1CC[C@H]([C@H]2CC[C@H]([C@H](O)CCCCCCCCCCC(O)CC3=C[C@H](C)OC3=O)O2)O1 (stereo partly drawn) [rolliniastatin-2]	pIC50	9.21
CCCCCCCCCC[C@H](O)[C@H]1CC[C@H]([C@H]2CC[C@H]([C@H](O)CCCCCCCCCCCCC3=C[C@H](C)OC3=O)O2)O1 [BULLANIN]	pIC50	9.36
